- target.or.test.system: MERTK (UniProt Q12866)
- Sequence (Q12866 whole entry, looked up): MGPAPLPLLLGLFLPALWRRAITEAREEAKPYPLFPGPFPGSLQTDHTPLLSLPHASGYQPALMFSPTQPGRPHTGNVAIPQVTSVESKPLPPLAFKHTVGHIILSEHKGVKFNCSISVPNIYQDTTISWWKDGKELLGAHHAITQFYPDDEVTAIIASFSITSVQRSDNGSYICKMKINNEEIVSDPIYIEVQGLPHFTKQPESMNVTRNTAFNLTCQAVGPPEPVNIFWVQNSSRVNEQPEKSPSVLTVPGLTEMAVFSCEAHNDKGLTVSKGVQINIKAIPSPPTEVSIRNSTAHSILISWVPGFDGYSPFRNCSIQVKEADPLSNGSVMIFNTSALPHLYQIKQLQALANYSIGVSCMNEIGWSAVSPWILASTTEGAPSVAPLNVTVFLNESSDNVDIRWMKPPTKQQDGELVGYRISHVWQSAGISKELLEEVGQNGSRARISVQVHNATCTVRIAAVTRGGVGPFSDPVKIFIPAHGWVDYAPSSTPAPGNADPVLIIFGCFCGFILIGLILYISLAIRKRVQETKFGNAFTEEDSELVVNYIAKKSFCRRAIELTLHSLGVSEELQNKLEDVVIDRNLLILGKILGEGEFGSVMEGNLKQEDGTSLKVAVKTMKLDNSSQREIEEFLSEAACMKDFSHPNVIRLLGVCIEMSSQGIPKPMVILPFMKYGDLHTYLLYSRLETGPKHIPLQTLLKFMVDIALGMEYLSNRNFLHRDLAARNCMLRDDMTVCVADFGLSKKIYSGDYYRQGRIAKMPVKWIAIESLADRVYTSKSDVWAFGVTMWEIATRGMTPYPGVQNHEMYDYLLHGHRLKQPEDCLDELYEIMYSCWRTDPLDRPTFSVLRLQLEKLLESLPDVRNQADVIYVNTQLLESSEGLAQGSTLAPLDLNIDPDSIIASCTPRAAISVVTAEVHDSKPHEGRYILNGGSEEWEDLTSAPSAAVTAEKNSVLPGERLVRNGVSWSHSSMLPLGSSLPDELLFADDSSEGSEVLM
- test.name: phosphorylation enrichment, bacterial display (enrichment ratio); higher = better substrate or ligand; peptides without Tyr show the background
observation.type: phosphorylation enrichment
// keep it numeric: no unit symbol after the value

Known phosphorylation enrichment results, listed for orientation:
MIRSTYALGGL [CPS1_Y590_A589T] | 0.488
MTFQNYRQALF [FAM20C_Y279_G280R] | 0.494
ARQEEYSAMRD [KRAS_Y64_G60R] | 0.497

Query string: Which phosphorylation enrichment is listed for YGSGNYNDFGN [HNRNPA2B1_Y300] ?
Result string: 0.501

###

- target.or.test.system: Grb2 SH2 (UniProt P62993)
- Sequence (P62993 whole entry, looked up): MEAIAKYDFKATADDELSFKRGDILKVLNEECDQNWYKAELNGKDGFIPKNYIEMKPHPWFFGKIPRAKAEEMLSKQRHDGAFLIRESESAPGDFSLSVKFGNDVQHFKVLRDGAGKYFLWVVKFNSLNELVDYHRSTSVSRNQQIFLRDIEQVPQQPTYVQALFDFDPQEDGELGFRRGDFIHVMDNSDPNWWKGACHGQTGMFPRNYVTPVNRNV
- test.name: SH2 binding enrichment of the phosphorylated peptide, bacterial display (enrichment ratio); higher = better substrate or ligand; peptides without Tyr show the background
Below, each of the sequences is paired with its reported SH2 binding enrichment value.
// keep it numeric: no unit symbol after the value

Known SH2 binding enrichment results, listed for orientation:
DLDTEYGSGYP [RNASEH2A_Y206_D205E] | 0.7
ASLEAYCKHKY [RXRA_Y403] | 0.831
EKSREYHRLFE [PIK3R1_Y463_D464H_YF] | 0.912
IGGHAYGDQYR [IDH1_Y135_R132G] | 0.776
DGKYSYLKVGH [GRM3_Y480_G475D] | 1.05

Query string: I'm curious: which SH2 binding enrichment was measured for INSLKYAYNVS [EIF2B5_Y583_I587V] tested on Grb2 SH2 (UniProt P62993)?
Result string: 1.01

Query string: Repeat for the following sequence: TFINKYQGKLF [HGD_Y249_V245F]
Result string: 0.726

Query string: Repeat for the following sequence: YSQNICIQNRN [PKP2_Y631_Y631C]
Result string: 0.7

Query string: Repeat for the following sequence: YSTSPYLLEAA [BRIP1_Y921]
Result string: 0.657

Query string: Repeat for the following sequence: RSDEDYLCREE [POR_Y573_Y575C]
Result string: 0.947

Query string: Repeat for the following sequence: QQLVAYYSKHA [SRC_Y232]
Result string: 0.851

Query string: Repeat for the following sequence: GQECKYPPTQD [METAP2_Y137_E136K]
Result string: 1.04

Query string: Repeat for the following sequence: IFQASYFRRGD [LTK_Y676_R673Q_YF]
Result string: 0.835

Query string: Repeat for the following sequence: VTVLDYEKIGK [SYT1_Y365_D366E]
Result string: 0.662

Query string: Repeat for the following sequence: RGFRVCFTPDS [PTPRF_Y450_Y450C_YF]
Result string: 0.796

Query string: Repeat for the following sequence: KLMTEYKRRKQ [ARFGEF3_Y2029_K2031R]
Result string: 0.642

Query string: Repeat for the following sequence: MSRLKYPVSQQ [BTK_Y375_I370M]
Result string: 1.03

Query string: Repeat for the following sequence: TVLEPYTDPYY [ZC3H18_Y367_A368T]
Result string: 0.516

Query string: Repeat for the following sequence: PQIVKYRPDCI [LDHB_Y128_S129R]
Result string: 1.26

Query string: Repeat for the following sequence: LGQRIYQYIRS [DYRK1B_Y271_Q275R]
Result string: 1.14

Query string: Repeat for the following sequence: VMLENYSNLVS [ZFP69_Y109]
Result string: 0.851

Query string: Repeat for the following sequence: RSSKMYFKTRS [LPL_Y329_L330F]
Result string: 0.884

Query string: Repeat for the following sequence: QQLVAYYSKHT [SRC_Y232_A237T]
Result string: 0.865

Query string: Repeat for the following sequence: KEKLCYVAPDF [ACTA1_Y220_L223P]
Result string: 0.971
